Each entry below carries its recorded viability, T/C.
- System: 699152-130-R-J1-PDC complex spheroid viability
- Assay: Anticancer human tumor 699152-130-R-J1-PDC patient-derived pancreatic carcinoma cell line growth inhibition [POLQ]
- Condition Parameters: second compound 10 µM; first compound 0.01 µM; stronger effect = lower value

Molecule	Unit Tag	viability, T/C
COc1cccc(OCCCN)c1-c1cc(Nc2cnc(C#N)cn2)n[nH]1 + Nc1ccc(C#CCN(C(=O)Cc2ncc(C(F)(F)F)cc2C(F)(F)F)c2ccc(F)cc2)nn1	%	92.3
Cn1ncnc1[C@H]1c2n[nH]c(=O)c3cc(F)cc(c23)N[C@@H]1c1ccc(F)cc1 + COC1C(OC(N)=O)C(O)C(Oc2ccc3c(O)c(NC(=O)c4ccc(O)c(CC=C(C)C)c4)c(=O)oc3c2C)OC1(C)C	%	103
CCc1c2c(nc3ccc(O)cc13)-c1cc3c(c(=O)n1C2)COC(=O)[C@]3(O)CC + Cc1cccc(N(C)C(=O)C2C(O)CCN2c2nc(C)cc(C(F)(F)F)c2C#N)c1	%	58
C=CCn1c(=O)c2cnc(Nc3ccc(N4CCN(C)CC4)cc3)nc2n1-c1cccc(C(C)(C)O)n1 + Nc1ccc(C#CCN(C(=O)Cc2ncc(C(F)(F)F)cc2C(F)(F)F)c2ccc(F)cc2)nn1	%	126
Cn1ncnc1[C@H]1c2n[nH]c(=O)c3cc(F)cc(c23)N[C@@H]1c1ccc(F)cc1 + Nc1ccc(C#CCN(C(=O)Cc2ncc(C(F)(F)F)cc2C(F)(F)F)c2ccc(F)cc2)nn1	%	95.2
COc1cccc(OCCCN)c1-c1cc(Nc2cnc(C#N)cn2)n[nH]1 + COC1C(OC(N)=O)C(O)C(Oc2ccc3c(O)c(NC(=O)c4ccc(O)c(CC=C(C)C)c4)c(=O)oc3c2C)OC1(C)C	%	90.8
COc1cccc(OCCCN)c1-c1cc(Nc2cnc(C#N)cn2)n[nH]1 + Cc1cccc(N(C)C(=O)C2C(O)CCN2c2nc(C)cc(C(F)(F)F)c2C#N)c1	%	88
CC[C@@]1(O)C(=O)OCc2c1cc1n(c2=O)Cc2cc3c(CN(C)C)c(O)ccc3nc2-1 + Nc1ccc(C#CCN(C(=O)Cc2ncc(C(F)(F)F)cc2C(F)(F)F)c2ccc(F)cc2)nn1	%	114
CCc1c2c(nc3ccc(O)cc13)-c1cc3c(c(=O)n1C2)COC(=O)[C@]3(O)CC + Nc1ccc(C#CCN(C(=O)Cc2ncc(C(F)(F)F)cc2C(F)(F)F)c2ccc(F)cc2)nn1	%	71.2
Cn1ncnc1[C@H]1c2n[nH]c(=O)c3cc(F)cc(c23)N[C@@H]1c1ccc(F)cc1 + Cc1cccc(N(C)C(=O)C2C(O)CCN2c2nc(C)cc(C(F)(F)F)c2C#N)c1	%	88.5

----------
The reader will find reported viability, T/C values listed item by item below.
- System: 699152-130-R-J1-PDC complex spheroid viability
- Assay: Anticancer human tumor 699152-130-R-J1-PDC cell line growth inhibition [POLQ];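 also: spheroids exposed to agents for 7 days before viability reading; percent of DMSO vehicle control viability so 100% = vehicle and 0% = no viable signal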
- Condition Parameters: second compound 0.0316 µM; first compound 10 µM; stronger effect = lower value

Compound	Unit Tag	viability, T/C
COc1cc(C2c3cc4c(cc3C(OC3OC5COC(C)OC5C(O)C3O)C3COC(=O)C23)OCO4)cc(OC)c1O (stereo not given) + Nc1ccc(C#CCN(C(=O)Cc2ncc(C(F)(F)F)cc2C(F)(F)F)c2ccc(F)cc2)nn1	%	50.1
CC1COCCN1c1cc(C2(S(C)(=N)=O)CC2)nc(-c2ccnc3[nH]ccc23)n1 (stereo not given) + Cc1cccc(N(C)C(=O)C2C(O)CCN2c2nc(C)cc(C(F)(F)F)c2C#N)c1	%	64
CCCS(=O)(=O)Nc1ccc(F)c(C(=O)c2c[nH]c3ncc(-c4ccc(Cl)cc4)cc23)c1F + Nc1ccc(C#CCN(C(=O)Cc2ncc(C(F)(F)F)cc2C(F)(F)F)c2ccc(F)cc2)nn1	%	36.3
O=C(c1cc(Cc2n[nH]c(=O)c3ccccc23)ccc1F)N1CCN(C(=O)C2CC2)CC1 + COC1C(OC(N)=O)C(O)C(Oc2ccc3c(O)c(NC(=O)c4ccc(O)c(CC=C(C)C)c4)c(=O)oc3c2C)OC1(C)C	%	34
COc1ccc([C@@H](O)c2cc(-c3ncnc4cc(N5CCOCC5)ccc34)c(F)cc2Cl)nn1 + Cc1cccc(N(C)C(=O)C2C(O)CCN2c2nc(C)cc(C(F)(F)F)c2C#N)c1	%	22.6
C=CC(=O)N1CCN(c2nc(=O)n(-c3c(C)ccnc3C(C)C)c3nc(-c4c(O)cccc4F)c(F)cc23)C(C)C1 (stereo not given) + COC1C(OC(N)=O)C(O)C(Oc2ccc3c(O)c(NC(=O)c4ccc(O)c(CC=C(C)C)c4)c(=O)oc3c2C)OC1(C)C	%	100
CC1COCCN1c1cc(-c2ccnn2C)c2ccnc(-c3ccn[nH]3)c2n1 (stereo not given) + COC1C(OC(N)=O)C(O)C(Oc2ccc3c(O)c(NC(=O)c4ccc(O)c(CC=C(C)C)c4)c(=O)oc3c2C)OC1(C)C	%	53.3
CCc1cc2c(N3CCc4c(cc(Cn5ccnc5)cc4-c4cn(C)nc4C(F)(F)F)C3=O)cc(C)nc2c(OC)n1 + Nc1ccc(C#CCN(C(=O)Cc2ncc(C(F)(F)F)cc2C(F)(F)F)c2ccc(F)cc2)nn1	%	106
COc1cc2cc(C(=O)CCC(=O)O)sc2cc1OC + Nc1ccc(C#CCN(C(=O)Cc2ncc(C(F)(F)F)cc2C(F)(F)F)c2ccc(F)cc2)nn1	%	88.9
Nc1ccn(C2OC(CO)C(O)C2(F)F)c(=O)n1 (stereo not given) + Nc1ccc(C#CCN(C(=O)Cc2ncc(C(F)(F)F)cc2C(F)(F)F)c2ccc(F)cc2)nn1	%	43
